tested system: PKR(wt) (Homo sapiens)
Sequence (P30613 whole entry): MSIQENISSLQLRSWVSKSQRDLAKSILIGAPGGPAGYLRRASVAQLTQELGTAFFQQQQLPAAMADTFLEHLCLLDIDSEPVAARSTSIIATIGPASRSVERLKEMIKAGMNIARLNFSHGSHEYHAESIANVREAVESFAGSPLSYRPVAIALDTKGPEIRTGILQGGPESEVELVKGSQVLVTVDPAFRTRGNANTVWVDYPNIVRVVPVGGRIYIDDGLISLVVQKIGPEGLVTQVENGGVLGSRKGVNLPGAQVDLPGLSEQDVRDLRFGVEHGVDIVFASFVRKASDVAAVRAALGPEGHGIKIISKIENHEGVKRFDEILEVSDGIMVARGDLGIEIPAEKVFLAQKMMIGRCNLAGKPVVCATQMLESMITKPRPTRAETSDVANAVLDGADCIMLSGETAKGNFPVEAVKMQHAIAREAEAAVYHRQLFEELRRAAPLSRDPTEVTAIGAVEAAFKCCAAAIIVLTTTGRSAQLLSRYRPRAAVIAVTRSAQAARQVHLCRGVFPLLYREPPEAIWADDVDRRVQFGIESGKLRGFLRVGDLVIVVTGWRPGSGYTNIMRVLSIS
experiment description: Luminescence Biochemical Assay (Kinase Glo Plus), wild type PKR
condition set: without FBP, 1.54 μM compound, read-out: AC50 LUM KGP woFBP % Fold@1.54 μM mean
Procedure: In some embodiments, a PKR Activating Compound can have: (1) an AC50 value of less than 0.1 μM (e.g., compounds with AC50 values of “+++” in Table 13), 0.1-1.0 μM (e.g., compounds with AC50 values of “++” in Table 13), or 1.01-40 μM (e.g., compounds with AC50 values of “+” in Table 13); (2) a MAX % Fold of 75%-250%, 250-500%, or 75%-500%; and/or (3) a % Fold@1.54 μM of 75%-250%, 250-500%, or 75%-500%. […]
measurement label: activation at 1.54 µM

Report activation at 1.54 µM for "Cc1cc(COC(=O)N2CC3=C(C2)CN(S(=O)(=O)c2ccc(OC(F)F)cc2)C3)nn1C" tested on PKR(wt) (Homo sapiens).
250 to 50000%

Record "O=C([C@H](O)c1ccccc1)N1CC2=C(C1)CN(S(=O)(=O)c1cccc(F)c1)C2" : what is its activation at 1.54 µM with PKR(wt) (Homo sapiens)?
75 to 250%

Recall the recorded activation at 1.54 µM for "O=C([C@H](O)c1ccccc1)N1CC2=C(C1)CN(S(=O)(=O)c1ccc(OC(F)F)cc1)C2" with PKR(wt) (Homo sapiens) and state it.
250 to 50000%

State recorded activation at 1.54 µM for all listed compounds.
1. O=C(NCc1cnccn1)N1CC2=C(C1)CN(S(=O)(=O)c1ccc3ncsc3c1)C2
2. COc1ccccc1CNC(=O)N1CC2=C(C1)CN(S(=O)(=O)c1ccc(OC(F)F)cc1)C2
3. O=C(NCc1ccccc1F)N1CC2=C(C1)CN(S(=O)(=O)c1ccc3ncsc3c1)C2
4. O=C([C@H](O)c1ccccc1)N1CC2=C(C1)CN(S(=O)(=O)c1ccccc1OC(F)(F)F)C2
5. Cc1cc(CNC(=O)N2CC3=C(C2)CN(S(=O)(=O)c2ccc(OC(F)F)cc2)C3)no1

250 to 50000%
250 to 50000%
250 to 50000%
75 to 250%
250 to 50000%

Lookup: activation at 1.54 µM / PKR(wt) (Homo sapiens) / "O=C(NCc1cccc(F)c1)N1CC2=C(C1)CN(S(=O)(=O)c1ccc3ncsc3c1)C2"
75 to 250%

* * *

For each record, write down the corresponding Emax.
tested system: PKR(R510Q) (Homo sapiens, UniProt P30613, R510Q)
Sequence (P30613 whole entry R510Q): as the sequence (P30613 whole entry) above, with R510Q counted along it
experiment description: Luminescence Biochemical Assay (Kinase Glo Plus), PKR R510Q mutant
condition set: without FBP, read-out: AC50 LUM KGP woFBP MAX % FOLD mean

Example entries begin here.
Which Emax is listed for "COc1cccc(CNC(=O)N2CC3=C(C2)CN(S(=O)(=O)c2ccc(F)cc2)C3)c1" ?
75 to 250%

If you can, please state the reported Emax value of O=C(C(O)c1ccc(C(F)(F)F)cc1)N1CC2=C(C1)CN(S(=O)(=O)c1ccc(OC(F)F)cc1)C2 (stereo not drawn) .
250 to 500%

Consider the record given below.
Which Emax reading was recorded for the compound CN1CCOc2ccc([C@H](O)C(=O)N3CC4=C(C3)CN(S(=O)(=O)c3ccc(OC(F)F)cc3)C4)cc21 (single isomer, unassigned) ?
250 to 500%

These entries and their values trace back to patent US12122778B2.
